Attribution: patent US20210388087A1

Target: T1, Human CD3eg linker (human)
T1 construct: single-chain construct; also called recombinant human CD3
T1 chain: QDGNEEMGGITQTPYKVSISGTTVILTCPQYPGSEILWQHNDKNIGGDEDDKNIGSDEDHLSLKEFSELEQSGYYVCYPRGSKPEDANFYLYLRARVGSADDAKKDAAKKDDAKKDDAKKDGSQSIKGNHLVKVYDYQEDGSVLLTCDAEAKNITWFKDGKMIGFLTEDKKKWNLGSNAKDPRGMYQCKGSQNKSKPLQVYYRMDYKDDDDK
Assay: SPR, vs unmutated H183/L072
Quantity: fold change of affinity (fold)
Express the result in fold but write the number alone.

Previously resolved entries follow.
What the record says about dBBDu183H H93D/dBBDu072L (antibody, name in Kabat numbering, V domains shown) VH: QVQLVESGGGLVQPGRSLRLSCAASGFTFSNAWMHWVRQAPGKGLEWVAQIKDKGNAYAAYYAPSVKGRFTISRDDSKNSIYLQMNSLKTEDTAVYYCDYVHYASASTVLPAFGVDAWGQGTTVTVSS VL: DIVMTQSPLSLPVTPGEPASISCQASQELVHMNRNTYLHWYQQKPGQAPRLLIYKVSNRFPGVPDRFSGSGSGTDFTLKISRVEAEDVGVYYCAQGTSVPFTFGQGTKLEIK : fold change of affinity is 0

For dBBDu183H F100gY/dBBDu072L (antibody, name in Kabat numbering, V domains shown) VH: QVQLVESGGGLVQPGRSLRLSCAASGFTFSNAWMHWVRQAPGKGLEWVAQIKDKGNAYAAYYAPSVKGRFTISRDDSKNSIYLQMNSLKTEDTAVYYCHYVHYASASTVLPAYGVDAWGQGTTVTVSS VL: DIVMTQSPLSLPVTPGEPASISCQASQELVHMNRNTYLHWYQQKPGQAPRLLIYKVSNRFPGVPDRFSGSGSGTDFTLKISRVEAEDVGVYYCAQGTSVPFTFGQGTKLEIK the binder record lists fold change of affinity as 1.2

***
The binder dBBDu183H V95S/dBBDu072L (antibody, name in Kabat numbering, V domains shown) VH: QVQLVESGGGLVQPGRSLRLSCAASGFTFSNAWMHWVRQAPGKGLEWVAQIKDKGNAYAAYYAPSVKGRFTISRDDSKNSIYLQMNSLKTEDTAVYYCHYSHYASASTVLPAFGVDAWGQGTTVTVSS VL: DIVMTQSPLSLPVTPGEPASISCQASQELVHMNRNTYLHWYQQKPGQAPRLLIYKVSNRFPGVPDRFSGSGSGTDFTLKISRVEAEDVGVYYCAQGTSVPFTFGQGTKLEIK showed fold change of affinity equal to 0
